# assay notes: qHTS Assay for Lipid Storage Modulators in Drosophila S3 Cells
# condition set: BODIPY lipid droplet fluorescence, 18-24 h, cells fed with added oleic acid; series mostly up to 46.1 µM
# Excerpt: NIH Molecular Libraries Probe Production Centers Network [MLPCN] NIH Chemical Genomics Center [NCGC] […] Triacsin C (Sigma-Aldrich T-4540), an inhibitor of long-chain fatty acyl CoA synthetase that blocks synthesis of triglycerides, was used as a positive control for lipid under-storage. […] Fluorescence was detected by excitation of the fluorophores with a 488-nm laser on an Acumen Explorer (TTP Lab Tech). […] Cells were detected using channel 3 (575-640 nm) with 5-um width and 100-um depth filters. […]
The campaign covered roughly 320,000 compounds. About 2,100 (0.66%) were called active. Roughly 53% stayed inconclusive and do not appear here. The call rests on the fitted dose curve; in most records, active means well fitted inhibition curve with a large enough effect in the signal ratio, with a control signal flat (not every such curve was filed as active); inconclusive means small, poorly fitted or top-dose-only effect, or effect the other way, or a change in a side signal; inactive means flat fitted curve, though single readings scatter; the % refers to the signal ratio. The list comes from a sample in which actives are over-represented; it also holds close analogues and randomly drawn compounds.
One label from this list, please: active, inactive

Query string: Returns: the outcome recorded for CCCN(CCC)C(=O)Cn1c(=O)n(CCCC(=O)NCc2ccco2)c(=O)c2sccc21 in this assay.
Result string: inactive

---
Query string: Returns: the outcome recorded for Cc1ccc(NC(=O)c2cccs2)cc1[N+](=O)[O-] in this assay.
Result string: inactive

Query string: Could you do the same for CCOc1ccc(NC(=O)CN2C(=O)C3CCCN3C2=O)cc1 (stereo unspecified) , please?
Result string: inactive

Query string: Could you do the same for O=C1Nc2ccc(Br)cc2C1(O)Cc1ccncc1 (stereo unspecified) , please?
Result string: inactive

Query string: Could you do the same for CCCOc1ccc(N2C(=O)C3ON(c4ccccc4)C(CCC)C3C2=O)cc1 (stereo unspecified) , please?
Result string: active

Query string: Could you do the same for CCCCC1C2C(=O)N(c3ccc(C)cc3)C(=O)C2ON1c1ccccc1 (stereo unspecified) , please?
Result string: inactive
